Cited source for all entries: ChEMBL document CHEMBL5523728

tgt: UniProt:P04062
Sequence (P04062 whole entry): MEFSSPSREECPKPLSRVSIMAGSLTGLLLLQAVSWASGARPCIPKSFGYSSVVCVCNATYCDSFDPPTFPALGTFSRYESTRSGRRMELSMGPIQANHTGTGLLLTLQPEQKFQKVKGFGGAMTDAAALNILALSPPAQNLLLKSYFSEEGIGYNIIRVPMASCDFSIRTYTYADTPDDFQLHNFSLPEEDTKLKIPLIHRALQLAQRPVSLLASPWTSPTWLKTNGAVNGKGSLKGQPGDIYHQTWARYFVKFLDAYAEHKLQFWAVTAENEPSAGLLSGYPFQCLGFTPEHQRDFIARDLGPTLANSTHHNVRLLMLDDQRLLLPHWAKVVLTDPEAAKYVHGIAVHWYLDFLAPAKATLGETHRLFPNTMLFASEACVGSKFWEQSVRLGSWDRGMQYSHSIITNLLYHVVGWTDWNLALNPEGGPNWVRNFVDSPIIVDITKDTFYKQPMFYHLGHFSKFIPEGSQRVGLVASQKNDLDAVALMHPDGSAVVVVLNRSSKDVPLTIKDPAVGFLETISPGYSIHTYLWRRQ
Task for the reader: assign each of the following molecules its reported Kd.

Sure, the documented Kd for `C=C(C)c1cccc([C@@H](N)CN(C)S(=O)(=O)c2cc(F)cc(F)c2)c1` is 50 nM

Lookup result for `c1ccc(CC2CCNCC2)cc1` ; measured Kd: 19000 nM

Query `N[C@H](CNS(=O)(=O)c1cc(F)cc(F)c1)c1ccccc1` yields Kd of 1000 nM

Kindly note the recorded Kd for `CN(CC(F)F)c1cccc([C@@H](N)CN(C)S(=O)(=O)c2cc(F)cc(F)c2)c1` , which is 220 nM

Kd recorded for this molecule, NCC(O)CNS(=O)(=O)c1ccccc1F (racemic) , is 180000 nM

Sample `CCCOc1cc(F)cc(S(=O)(=O)N(C)C[C@@H](N)c2cccc(N(C)C)c2)c1` ; Kd observed: 18 nM

get_value(item= `N[C@H](CNS(=O)(=O)c1cccc(F)c1)c1ccccc1` , readout=Kd) returns 3000 nM

Record summary for `CN(C[C@H](N)c1cccc(Cl)c1)S(=O)(=O)c1cc(F)cc(F)c1` : reported Kd = 250 nM

----------
Answer each item with its documented EC50.
tgt: Lysosomal acid glucosylceramidase (Homo sapiens)
test summary: Positive allosteric modulation of GCase in human Fibroblast cells using GBA1-FQ2 as substrate preincubated for 24 hrs followed by substrate addition and measured after 3 hrs by Hoechst 33342 staining based imaging analysis
Answer in µM, number only, no unit symbol.

compound `CCCOc1cc(F)cc(S(=O)(=O)N(C)C[C@@H](N)c2cccc(N(C)C)c2)c1` , EC50 observed: 8.9

The compound identified as `C=C(C)c1cccc([C@@H](N)CN(C)S(=O)(=O)c2cc(F)cc(F)c2)c1` registered its EC50 at 9
